# maps each entry to its inhibition
# SYSTEM UNDER TEST: Serine/threonine-protein kinase Nek9 (Homo sapiens);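 note: reported value is the mean percent inhibition of NEK9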
# Sequence (whole entry): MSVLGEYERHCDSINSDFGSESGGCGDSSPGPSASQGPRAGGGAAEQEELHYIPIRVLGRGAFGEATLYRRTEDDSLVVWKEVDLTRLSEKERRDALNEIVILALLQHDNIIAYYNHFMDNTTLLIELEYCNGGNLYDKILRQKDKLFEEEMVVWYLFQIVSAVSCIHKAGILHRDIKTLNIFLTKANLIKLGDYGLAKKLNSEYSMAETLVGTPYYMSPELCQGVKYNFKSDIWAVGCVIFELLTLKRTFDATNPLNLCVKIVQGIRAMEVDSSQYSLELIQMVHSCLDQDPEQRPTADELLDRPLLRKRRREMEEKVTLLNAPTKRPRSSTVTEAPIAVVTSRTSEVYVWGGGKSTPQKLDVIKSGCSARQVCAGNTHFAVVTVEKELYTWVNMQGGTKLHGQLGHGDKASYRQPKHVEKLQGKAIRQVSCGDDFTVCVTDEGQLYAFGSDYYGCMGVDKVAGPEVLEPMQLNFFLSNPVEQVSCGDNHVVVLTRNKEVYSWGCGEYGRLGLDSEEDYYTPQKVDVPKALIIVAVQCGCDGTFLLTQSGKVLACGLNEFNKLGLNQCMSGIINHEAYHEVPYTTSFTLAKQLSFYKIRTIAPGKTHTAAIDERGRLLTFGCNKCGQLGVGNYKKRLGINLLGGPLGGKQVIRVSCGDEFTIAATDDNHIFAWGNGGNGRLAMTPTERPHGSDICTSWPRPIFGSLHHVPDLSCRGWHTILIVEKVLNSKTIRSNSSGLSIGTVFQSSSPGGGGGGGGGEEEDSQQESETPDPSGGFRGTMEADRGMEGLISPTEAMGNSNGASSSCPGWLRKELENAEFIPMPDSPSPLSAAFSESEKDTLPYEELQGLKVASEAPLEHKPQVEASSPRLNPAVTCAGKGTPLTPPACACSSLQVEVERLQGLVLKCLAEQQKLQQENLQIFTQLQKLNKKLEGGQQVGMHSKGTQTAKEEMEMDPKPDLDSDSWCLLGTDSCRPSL
# MEASUREMENT CONTEXT: at 0.1 µM

# COMPOUND, SYSTEM UNDER TEST, inhibition (%)
rows = [
    ("CS(=O)(=O)CCNCc1nc(-c2ccc3ncnc(Nc4ccc(F)c(Cl)c4)c3c2)cs1", "Serine/threonine-protein kinase Nek9 (Homo sapiens)", 0.58),
    ("COC(=O)Nc1nc2cc(Oc3ccc(NC(=O)Nc4cccc(C(=O)O)c4)cc3)ccc2[nH]1", "Serine/threonine-protein kinase Nek9 (Homo sapiens)", 3.39),
    ("O=C1NC(=O)C(N2CCc3ccccc32)=C1c1ccc(Cl)cc1", "Serine/threonine-protein kinase Nek9 (Homo sapiens)", 5.67),
    ("Nc1nc(-c2ccc3c(c2)C(=Cc2cc(Br)c(O)c(Br)c2)C(=O)N3)cs1", "Serine/threonine-protein kinase Nek9 (Homo sapiens)", 2.02),
    ("CCCN1CCC(Oc2cc(Nc3nc(Nc4cccc(F)c4C(N)=O)c4cc[nH]c4n3)c(OC)cc2Cl)CC1", "Serine/threonine-protein kinase Nek9 (Homo sapiens)", -0.6),
    ("Cc1cc(O)cc(C)c1/C=C/c1cncc(-c2nn[nH]n2)c1", "Serine/threonine-protein kinase Nek9 (Homo sapiens)", 4.65),
    ("Cc1cccc(-c2n[nH]cc2-c2ccc3ncccc3n2)n1", "Serine/threonine-protein kinase Nek9 (Homo sapiens)", 1.6),
    ("CCn1c(-c2nonc2N)nc2cncc(C(=O)N3CC[C@H](N)C3)c21", "Serine/threonine-protein kinase Nek9 (Homo sapiens)", 11.8),
    ("Fc1cccc(COc2ccc(Nc3ncnc4sc(-c5cccs5)cc34)cc2Cl)c1", "Serine/threonine-protein kinase Nek9 (Homo sapiens)", 1.95),
    ("CS(=O)(=O)Nc1ccc(N/C=C2\\C(=O)Nc3ccccc32)cc1", "Serine/threonine-protein kinase Nek9 (Homo sapiens)", -0.57),
    ("CC1=C(C(=O)Nc2ccc3[nH]ncc3c2)C(c2ccc(F)cc2)NC(=O)N1 (stereo unspecified)", "Serine/threonine-protein kinase Nek9 (Homo sapiens)", 2.85),
    ("COc1cc(C=NNc2ncnc3c2cnn3-c2ccccc2)ccc1O", "Serine/threonine-protein kinase Nek9 (Homo sapiens)", 3.36),
    ("COc1cc(C)c(NC(=O)CN(C)C)cc1Nc1nc(Nc2cccc(F)c2C(N)=O)c2cc[nH]c2n1", "Serine/threonine-protein kinase Nek9 (Homo sapiens)", 7.92),
    ("Cc1ccc(NC(=O)c2ccnc(N3CCCC3)c2)cc1-c1ccc(C(=O)NCC2CC2)cc1", "Serine/threonine-protein kinase Nek9 (Homo sapiens)", 5.79),
    ("CS(=O)(=O)CCNCc1ccc(-c2ccc3ncnc(Nc4ccc(OCc5cccc(F)c5)c(C(F)(F)F)c4)c3c2)o1", "Serine/threonine-protein kinase Nek9 (Homo sapiens)", 7.55),
    ("NCc1ccc(-c2nc(-c3ccc(Cl)c(O)c3)c(-c3ccncc3)[nH]2)cc1", "Serine/threonine-protein kinase Nek9 (Homo sapiens)", 7.64),
    ("Nc1nc(-c2ccccn2)c(-c2ccc3ncccc3n2)s1", "Serine/threonine-protein kinase Nek9 (Homo sapiens)", 6.33),
    ("COc1ccc(-c2ccncc2)cc1C(N)=O", "Serine/threonine-protein kinase Nek9 (Homo sapiens)", 4.72),
    ("CNC(=O)c1cncc(/C=C/c2c(Cl)cccc2Cl)c1", "Serine/threonine-protein kinase Nek9 (Homo sapiens)", 5.43),
    ("NC(=O)c1cccc(Nc2nccc(Nc3cccc4[nH]ncc34)n2)c1", "Serine/threonine-protein kinase Nek9 (Homo sapiens)", -0.63),
    ("CC1=C(C(=O)Nc2ccc3[nH]ncc3c2)C(c2ccc3ccccc3c2)CC(=O)N1 (stereo unspecified)", "Serine/threonine-protein kinase Nek9 (Homo sapiens)", 3.14),
]
